Here, each record is paired with measured relative current of ENaC with compound data.
System: ENaC channels expressed in oocytes
PROTOCOL_SUMMARY: ENaC current in Xenopus oocytes, two-electrode voltage clamp
Type: cell-based
CONDITION_NOTES: 100 µM, relative to control without diarylamidine, holding -70 mV
Could you keep your reply to the number by itself?

Worked examples follow.
MOLECULE | TEST_SYSTEM | relative current of ENaC with compound
N=C(N)c1ccc(/C=C/c2ccc(C(=N)N)cc2O)cc1 [Hydroxystilbamidine] | ENaC channels expressed in oocytes | 1.02
N=C(N)c1ccc(-c2cc3ccc(C(=N)N)cc3[nH]2)cc1 | ENaC channels expressed in oocytes | 0.98
N=C(N)c1ccc(OCCCCCOc2ccc(C(=N)N)cc2)cc1 | ENaC channels expressed in oocytes | 1.02

Here's the next entry for you.
Measured relative current of ENaC with compound, N=C(N)c1ccc(/N=N/Nc2ccc(C(=N)N)cc2)cc1 : 1.11
